system: SW-620 colon; assay: NCI tumour cell line growth inhibition, 48 h; in the data active means GI50 below about 0.43 µM; inactive means the rest
Outcome (select one): YES = active, NO = inactive

Q: Kindly provide the recorded test outcome for the following compound: "COC(=O)[C@@H](C)C[C@H](Cc1ccccc1)NC(=O)c1nc([C@@H](C[C@H](C(C)C)N(C)C(=O)[C@@H](NC(=O)[C@H]2CCCN2C)C(C)C)OC(C)=O)sc1C"
Ans: YES

Q: Kindly provide the recorded test outcome for the following compound: "CC(=O)c1ccc(N(/C=C/C(=O)C(F)(F)F)CC(=O)c2ccc(Cl)c(Cl)c2)cc1"
Ans: NO

Q: Kindly provide the recorded test outcome for the following compound: "Cc1c(N2C(=O)/C(=C\c3ccccc3O)N=C2c2ccccc2)c(=O)n(-c2ccccc2)n1C"
Ans: NO

Q: Kindly provide the recorded test outcome for the following compound: "CC[n+]1ccc2c(c1)C(=O)c1nccc3c1c-2nc1ccccc13"
Ans: NO

###

system: SF-268 CNS; assay: NCI tumour cell line growth inhibition, 48 h
readout: TGI

Q: Could you share which TGI value was measured for "C[C@@H]1C[C@H](O)[C@]2(O)O[C@@H]3C[C@@]4(C=O)[C@@H](CC=C5[C@@H]4CC[C@]4(C)[C@@H](C6=CC(=O)OC6)CC[C@]54O)C[C@H]3O[C@@H]2O1" ?
Ans: 0.166 µM

Q: Could you share which TGI value was measured for O=S(=O)(O)C(O)/C=C/c1ccccc1 (stereo unspecified) ?
Ans: > 100 µM

Q: Could you share which TGI value was measured for "CC1=C[C@@H]2Cc3occc3C(C)(C)[C@@H]2CC1" ?
Ans: 38.3 µM

Q: Could you share which TGI value was measured for "O=C(Nc1ccccc1[N+](=O)[O-])c1ccccc1" ?
Ans: > 100 µM

Q: Could you share which TGI value was measured for "COc1ccc(/C=C(/C(=O)O)c2cc(OC)c(OC)c(OC)c2)cc1" ?
Ans: > 100 µM

Q: Could you share which TGI value was measured for "N#CSCc1cccc(Nc2cc(=O)[nH]c(=O)[nH]2)c1" ?
Ans: 78.4 µM

Q: Could you share which TGI value was measured for "ClCc1ccccc1CSc1ncnc2nc[nH]c12" ?
Ans: > 60 µM

Q: Could you share which TGI value was measured for "CCOC(=O)CCCO" ?
Ans: > 100 µM

Q: Could you share which TGI value was measured for "CN(C)CCNc1nc2ccccc2c2[nH]c3ccccc3c12" ?
Ans: 1.82 µM

Q: Could you share which TGI value was measured for "CC(=O)/C=C/c1cccc(N=S)c1" ?
Ans: > 69.6 µM

Q: Could you share which TGI value was measured for "OCCNCO" ?
Ans: > 100 µM

Q: Could you share which TGI value was measured for "CN1CCN(C(=S)N(C)C(=O)c2ccc(Cl)cc2)CC1" ?
Ans: > 100 µM

Q: Could you share which TGI value was measured for "O=C1Oc2cc3c(c4cccc1c24)OCN(c1ccc(Cl)cc1)C3" ?
Ans: > 100 µM

Q: Could you share which TGI value was measured for CC1CCC[P+](Cc2ccccc2)(c2ccccc2)CC1 (stereo unspecified) ?
Ans: > 100 µM

Q: Could you share which TGI value was measured for "COC(=O)c1c2c(c(C)[n+]([O-])c1C)C(=O)C=CC2=O" ?
Ans: 5.52 µM

Q: Could you share which TGI value was measured for "Cc1c(Cl)cccc1Nc1ncccc1C(=O)O" ?
Ans: > 100 µM

Q: Could you share which TGI value was measured for "CN1CN(c2ccccc2)C2(CCN(CCCC3(c4cccs4)OCCO3)CC2)C1=O" ?
Ans: > 100 µM

Q: Could you share which TGI value was measured for CC1=CCCC(OC(N)=O)C1 (stereo unspecified) ?
Ans: > 100 µM

Q: Could you share which TGI value was measured for "COc1cc([C@@H]2c3cc4c(cc3C[C@H]3COC(=O)[C@@H]32)OCO4)cc(OC)c1OC" ?
Ans: > 50 µM

Q: Could you share which TGI value was measured for "Cc1cccc(C[C@@]2(SCc3ccccc3)C(C)(C)[C@@H]3CC[C@@]2(C)C3)n1" ?
Ans: 29.5 µM

Q: Could you share which TGI value was measured for CCOC(=O)C1C(=O)CC(O)(c2ccccc2)C(C(=O)OCC)C1c1ccc(OC)cc1 (stereo unspecified) ?
Ans: > 100 µM

Q: Could you share which TGI value was measured for CC1=CC=CC(C)(C)CC1(O[Si](C)(C)C)C(F)(F)F (stereo unspecified) ?
Ans: > 100 µM

Q: Could you share which TGI value was measured for "Cc1ccc(C(=O)Nc2ccc(CP(=O)(O)O)cc2)cc1NC(=O)c1cccc(NC(=O)Nc2cccc(C(=O)Nc3cc(C(=O)Nc4ccc(CP(=O)(O)O)cc4)ccc3C)c2)c1" ?
Ans: > 100 µM

Q: Could you share which TGI value was measured for "CN1C(=O)CN(NC(=O)C2=C(O)c3ccc(Br)cc3S(=O)(=O)N2)C1=S" ?
Ans: > 100 µM

Q: Could you share which TGI value was measured for O=C1NC(=O)C2C(=O)NC(=O)C1C2(c1ccccc1)c1ccc(Cl)cc1 (stereo unspecified) ?
Ans: > 100 µM

Q: Could you share which TGI value was measured for "CC(=O)CC(=O)c1cc2c(=O)oc(C)cc2oc1=O" ?
Ans: > 37.5 µM

Q: Could you share which TGI value was measured for "CCCNC(=O)OCc1c(COC(=O)NCCC)c(-c2ccc(Cl)c(Cl)c2)n2c1CCC2" ?
Ans: 21.5 µM

Q: Could you share which TGI value was measured for "NC1(CCCCCCCCCCC(=O)O)CNCCNCCNCCNC1" ?
Ans: > 100 µM

Q: Could you share which TGI value was measured for "Cc1cccc2c3ccc4c(c3n(C)c12)C(=O)C=CC4=O" ?
Ans: > 100 µM

Q: Could you share which TGI value was measured for "O=[N+]([O-])c1ccc(NSc2ccccc2)cc1" ?
Ans: > 100 µM

Q: Could you share which TGI value was measured for "CCN(CCCN(CC)C(=O)N[C@@H](Cc1ccccc1)C(=O)NC)C(=O)N[C@@H](Cc1ccccc1)C(=O)NC" ?
Ans: > 100 µM
